- target: T1, human LGR7 (human, UniProt Q9HBX9 1-757)
- T1 construct: whole, on cells
- T1 sequence (looked up): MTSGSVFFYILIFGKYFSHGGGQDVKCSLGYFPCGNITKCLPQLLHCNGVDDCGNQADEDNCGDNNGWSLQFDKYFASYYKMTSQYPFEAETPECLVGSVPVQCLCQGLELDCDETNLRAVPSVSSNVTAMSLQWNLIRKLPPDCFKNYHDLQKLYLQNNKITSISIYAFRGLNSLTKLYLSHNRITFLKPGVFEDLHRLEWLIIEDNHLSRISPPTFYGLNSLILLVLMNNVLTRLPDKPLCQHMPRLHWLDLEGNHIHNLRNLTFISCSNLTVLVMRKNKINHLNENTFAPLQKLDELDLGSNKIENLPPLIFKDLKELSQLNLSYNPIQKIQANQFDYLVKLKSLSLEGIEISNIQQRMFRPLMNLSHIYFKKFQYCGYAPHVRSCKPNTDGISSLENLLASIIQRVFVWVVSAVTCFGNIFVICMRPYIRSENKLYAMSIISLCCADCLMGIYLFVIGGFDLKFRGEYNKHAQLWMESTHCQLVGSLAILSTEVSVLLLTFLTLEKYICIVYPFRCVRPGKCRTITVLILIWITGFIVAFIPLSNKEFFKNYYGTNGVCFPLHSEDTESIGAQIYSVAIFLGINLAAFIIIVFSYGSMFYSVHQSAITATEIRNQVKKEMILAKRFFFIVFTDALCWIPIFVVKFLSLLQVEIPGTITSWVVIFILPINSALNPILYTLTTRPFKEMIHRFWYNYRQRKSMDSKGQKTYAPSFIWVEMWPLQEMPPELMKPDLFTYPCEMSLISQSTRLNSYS
- protocol.description: competition with [125I]-relaxin-3 (100 pM), live COS-7 cells with human LGR7
Ends that are not written are not given here.
Reported values of log10 IC50 for individual entries
result.type: log10 IC50 (log10 of the value in nM)

{"columns": ["binder", "log10 IC50"],
 "data": [
  ["human relaxin-3/relaxin-2 chimeric polypeptide (R3/R2), mature (ligand, disulfide (positions not given here); also: two-chain peptide (relaxin-3 B chain, relaxin-2 A chain), disulfide-linked, places not given here, Mature two-chain peptide: human relaxin-3 B-chain disulfide-linked to human relaxin-2 A-chain; FLAG tag removed) RAAPYGVRLCGREFIRAVIFTCGGSRWQLYSALANKCCHVGCTKRSLARFC", 0.18],
  ["RAAPYGVRLCGREFIRAVIFTCGGSRWQDLQTLCCTDGCSMTDLSALC (ligand, disulfide (positions not given here); also: two chains (relaxin-3 B-chain, INSL5 A-chain), disulfide-linked, chain break not marked, Mature two-chain peptide: human relaxin-3 B-chain disulfide-linked to human INSL5 A-chain; FLAG tag removed; the tracer is kept under this same molecule; also called R3/5; I5/R3) [human relaxin-3/INSL5 chimeric polypeptide (R3/I5), mature]", 2.86],
  ["RAAPYGVRLCGREFIRAVIFTCGGSRWGYSEKCCLTGCTKEELSIAC (ligand, disulfide (positions not given here); also: two chains (relaxin-3 B-chain, INSL6 A-chain), disulfide-linked, chain break not marked, Mature two-chain peptide: human relaxin-3 B-chain disulfide-linked to human INSL6 A-chain; FLAG tag removed) [human relaxin-3/INSL6 chimeric polypeptide (R3/I6), mature]", 1.11],
  ["RAAPYGVRLCGREFIRAVIFTCGGSRWPYVALFEKCCLIGCTKRSLAKYC (ligand, disulfide (positions not given here); also: two chains (relaxin-3 B-chain, relaxin-1 A-chain), disulfide-linked, chain break not marked, Mature two-chain peptide: human relaxin-3 B-chain disulfide-linked to human relaxin-1 A-chain; Made in COS-7 cells with furin; the FLAG tag was removed with enterokinase) [human relaxin-3/relaxin-1 chimeric polypeptide (R3/R1), mature]", 0.71],
  ["RAAPYGVRLCGREFIRAVIFTCGGSRWNPARYCCLSGCTQQDLLTLC (ligand, disulfide (positions not given here); also: two chains (relaxin-3 B-chain, INSL3 A-chain), disulfide-linked, chain break not marked, Mature two-chain peptide: human relaxin-3 B-chain disulfide-linked to human INSL3 A-chain; FLAG tag removed) [human relaxin-3/INSL3 chimeric polypeptide (R3/I3), mature]", 0.36]
]}
